Tested on: A549 NSCLC
RUN_DESCRIPTION: NCI tumour cell line growth inhibition, 48 h
OBSERVABLE: GI50

// compound `c1ccc2c(c1)nc(NCCN1CCNCC1)c1c3ccccc3[nH]c21` , assay A549 NSCLC, GI50 value: 0.206 µM

// compound COC(=O)C(C)N1C(=O)c2ccccc2I1OC(C)=O (stereo unspecified) , assay A549 NSCLC, GI50 value: > 100 µM

// compound `CN1C(=O)c2cc(Cl)nc3c(NC(=O)c4cccc(Cl)c4)c(Cl)c(NC(=O)c4cccc(Cl)c4)c1c23` , assay A549 NSCLC, GI50 value: 4.14 µM

// compound `CCOC(=O)c1[nH]c2c(c1C)-c1[nH]c(=O)c(S(=O)(=O)c3ccccc3)cc1SC2` , assay A549 NSCLC, GI50 value: 41.3 µM

// compound COc1ccc(C2=CC(c3cc(OC)c(OC)c(OC)c3)n3ncnc3N2)cc1 (stereo unspecified) , assay A549 NSCLC, GI50 value: 0.0858 µM

// compound `Nc1ncnc2occ(-c3ccc(NC(=O)Nc4cc(C(F)(F)F)cc(C(F)(F)F)c4)cc3)c12` , assay A549 NSCLC, GI50 value: 3 µM

// compound N#CC1c2ccccc2-c2ccccc2N1C(=O)c1ccccc1 (stereo unspecified) , assay A549 NSCLC, GI50 value: 2.97 µM

// compound `COc1ccccc1C(=O)c1cnc(NC2CCN(S(C)(=O)=O)CC2)nc1N` , assay A549 NSCLC, GI50 value: 4.68 µM

// compound COc1ccccc1C1C(C#N)=C(N)OC2=C1C(=O)CCC2 (stereo unspecified) , assay A549 NSCLC, GI50 value: > 100 µM

// compound `O=C(/C=C/N1CCN(c2cccc(C(F)(F)F)c2)CC1)c1ccc(Cl)cc1Cl` , assay A549 NSCLC, GI50 value: 39.8 µM

// compound `Cc1ccc([P+](Cc2ccc([N+](=O)[O-])cc2)(c2ccc(C)cc2)c2ccc(C)cc2)cc1` , assay A549 NSCLC, GI50 value: 14.4 µM

---

For each record, write down the corresponding GI50.
Test system: UO-31 renal
RUN_DESCRIPTION: NCI tumour cell line growth inhibition, 48 h

So for `Cc1nnc([S-])s1.[Au+].c1ccc([PH+](c2ccccc2)c2ccccc2)cc1` , the logged GI50 turned out to be 1640 nM

So for `CN1C(=O)c2cc(Cl)nc3c(NC(=O)c4cccc(Cl)c4)c(Cl)c(NC(=O)c4cccc(Cl)c4)c1c23` , the logged GI50 turned out to be 1710 nM

So for `COc1ccc(C[C@H]2C[C@@H](O)[C@@H](C)C/C=C/Cc3cccc(O)c3C(=O)O2)cn1` , the logged GI50 turned out to be 19900 nM

So for `CCCC/C(=N\N=C(N)N)c1ccc(F)cc1` , the logged GI50 turned out to be 5280 nM

So for `O=C1c2c(O)cccc2C(C(=O)CCCCC(=O)C2c3cccc(O)c3C(=O)c3c(O)cccc32)c2cccc(O)c21` , the logged GI50 turned out to be 1110 nM

---

Tested on: KM12 colon
RUN_DESCRIPTION: NCI tumour cell line growth inhibition, 48 h
For each record, write down the corresponding TGI.
The answer is to be given in µM; state only the numeric part.

So for `CN1C(=O)c2cc(Cl)nc3c(NC(=O)c4cccc(Cl)c4)c(Cl)c(NC(=O)c4cccc(Cl)c4)c1c23` , the logged TGI turned out to be 15.5

So for `CCN(CC)CCOc1ccc(/C=C2\C[C@H]3[C@@H]4CC=C5C[C@@H](OC(C)=O)CC[C@]5(C)[C@H]4CC[C@]3(C)[C@H]2OC(C)=O)cc1OC` , the logged TGI turned out to be 21.4

Origin of measurements: PubChem BioAssay (NCI)
